experimental_target: T1, FMDV O/Mya/98 146S antigen (Foot-and-mouth disease virus serotype …, UniProt G8JKC2, strain)
T1 construct: also called purified virus antigen; copies: + + +
test_description: immunostaining of cells or tissue
experimental_parameters: one partner purified
assay_readout: binding result

F115 (antibody) VH: QVQLRESGPSLVKPSQTLSLTCTASGFSLSDKTLGWVRQAPGKALEWLGSMDSGGNTGYNPDLKSRLSITKDNSRSQVSLSVSSVTTEDSATYYCTTTHQISRKEQRCPDGCRVNGWWGDSGCDDDTYCRYNYWGNCIRCTYVYTYEFHVDAWGQGLLVTVSS VL: QAVLTQPSSVSGSLGQRVSITCSGSSSNVENGYVSWYQLIPGSTPKTLIYGDTSRASGVPARFSGSRSGNTATLTISSLQAEDEADYFCASAEDTSSNAVFGSGTTLTVL; binds

// data source = paper PMC6908506
